Some molecules, each annotated with its measured IC50.
- Tested System: p110β/p85α (Homo sapiens, UniProt P42338)
- Sequence (P42338 whole entry, looked up): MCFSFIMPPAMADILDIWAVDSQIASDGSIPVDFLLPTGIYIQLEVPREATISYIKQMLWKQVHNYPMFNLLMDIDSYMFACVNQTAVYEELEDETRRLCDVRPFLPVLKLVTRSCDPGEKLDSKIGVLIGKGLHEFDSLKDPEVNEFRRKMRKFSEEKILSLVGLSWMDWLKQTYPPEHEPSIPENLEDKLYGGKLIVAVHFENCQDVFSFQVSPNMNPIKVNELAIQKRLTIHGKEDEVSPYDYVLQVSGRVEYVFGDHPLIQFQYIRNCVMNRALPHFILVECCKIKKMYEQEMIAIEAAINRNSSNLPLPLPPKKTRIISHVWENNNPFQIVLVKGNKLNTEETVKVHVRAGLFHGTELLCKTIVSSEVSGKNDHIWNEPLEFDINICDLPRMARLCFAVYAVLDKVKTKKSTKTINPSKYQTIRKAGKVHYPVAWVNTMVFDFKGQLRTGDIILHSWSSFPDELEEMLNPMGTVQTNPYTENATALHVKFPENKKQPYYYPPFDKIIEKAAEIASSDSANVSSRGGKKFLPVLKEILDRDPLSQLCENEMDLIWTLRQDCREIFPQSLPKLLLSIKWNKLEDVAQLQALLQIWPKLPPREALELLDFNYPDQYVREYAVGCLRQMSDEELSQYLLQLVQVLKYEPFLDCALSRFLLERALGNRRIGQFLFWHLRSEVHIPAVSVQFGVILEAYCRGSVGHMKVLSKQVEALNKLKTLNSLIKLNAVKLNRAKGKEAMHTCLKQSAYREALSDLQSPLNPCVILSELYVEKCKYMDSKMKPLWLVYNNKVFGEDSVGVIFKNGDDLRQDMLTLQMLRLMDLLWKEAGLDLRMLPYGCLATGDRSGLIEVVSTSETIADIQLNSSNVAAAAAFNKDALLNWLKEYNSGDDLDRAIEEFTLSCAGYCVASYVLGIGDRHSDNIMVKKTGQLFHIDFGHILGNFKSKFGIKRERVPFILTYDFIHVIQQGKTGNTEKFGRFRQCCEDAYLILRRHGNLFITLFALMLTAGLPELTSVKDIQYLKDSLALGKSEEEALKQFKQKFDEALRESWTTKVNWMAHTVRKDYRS
- Test Description: PI3K β inhibition assay (TLC lipid kinase or HTRF)
- Type: biochemical
- Condition Notes: read-out: PI3K β IC50
Property: IC50

INSERT INTO measurements (molecule, tested_system, property, reported_result) VALUES
  ('Nc1ncnc2c1c(-c1cc(O)cc(F)c1)nn2Cc1cc2ccccc2nc1CCN1CCCC1 [Compound 165]', 'p110β/p85α (Homo sapiens, UniProt P42338)', 'IC50', '0.1 to 1 µM'),
  ('Nc1ncnc2c1c(/C=C1/CCNC1=O)nn2Cc1cc2ccccc2nc1-c1ccccc1F [Compound 193]', 'p110β/p85α (Homo sapiens, UniProt P42338)', 'IC50', '> 1 µM'),
  ('Nc1nc2ccc(-c3nn(Cc4cc5ccccc5nc4-c4ccccc4C(F)(F)F)c4ncnc(N)c34)cc2[nH]1 [Compound 181]', 'p110β/p85α (Homo sapiens, UniProt P42338)', 'IC50', '> 1 µM'),
  ('CC1CCCN1c1nc2ccccc2cc1Cn1ncc2c(N)ncnc21 (centres unmarked) [Compound 188]', 'p110β/p85α (Homo sapiens, UniProt P42338)', 'IC50', '> 1 µM'),
  ('Cc1cn(-c2nc3ccccc3cc2Cn2nc(-c3ccc4nc(N)sc4c3)c3c(N)ncnc32)cn1 [Compound 176]', 'p110β/p85α (Homo sapiens, UniProt P42338)', 'IC50', '> 1 µM'),
  ('Nc1nc2ccc(-c3nn(Cc4cc5ccccc5nc4CCN4CCCC4)c4ncnc(N)c34)cc2s1 [Compound 167]', 'p110β/p85α (Homo sapiens, UniProt P42338)', 'IC50', '0.1 to 1 µM'),
  ('CCn1c(=O)c(Cn2nc(-c3ccc4nc(N)sc4c3)c3c(N)ncnc32)nc2ccccc21 [Compound 119]', 'p110β/p85α (Homo sapiens, UniProt P42338)', 'IC50', '> 1 µM'),
  ('Nc1ncnc2c1c(-c1cc(O)cc(F)c1)nn2Cc1cc2ccccc2nc1N1CCOCC1 [Compound 63]', 'p110β/p85α (Homo sapiens, UniProt P42338)', 'IC50', '> 1 µM');
